tested on: KM12 colon; experiment: NCI-60 one-dose screen, 48 h (100 = growth as untreated, 0 = no growth, -100 = all killed); conditions: 10 µM
The panel holds about 83,000 compounds, 20% with a hit somewhere; the sample as a whole holds those more often. Active and inactive are the calls of the source. The calls were made as follows: active = growth percent below 10; inactive = the rest.
PARAMETER: growth

INSERT INTO measurements (compound, result) VALUES
  ('CNC(=O)c1ccccc1CC1(O)c2ccccc2Oc2ccccc21', '34.5% (inactive)'),
  ('COc1ccc(NC(=O)CCl)cc1', '85.5% (inactive)'),
  ('NNc1ccccc1C(=O)O', '108% (inactive)'),
  ('O=C(O)C(c1ccccc1)C(O)c1ccccc1 (stereo not given)', '108% (inactive)'),
  ('C1CNC(C2=NCCN2)=N1', '95.4% (inactive)'),
  ('N#CCCc1ccc(O)cc1', '114% (inactive)'),
  ('CCCCNC(=O)C(=O)NCCCC', '102% (inactive)'),
  ('NC(C(=O)O)C(O)c1ccco1 (stereo not given)', '107% (inactive)'),
  ('CCCCC/C=N/Nc1nc(C)cc(=O)[nH]1', '106% (inactive)'),
  ('O=c1cc2oc3cc(O)c(O)cc3c(-c3ccccc3O)c-2cc1O', '92.7% (inactive)'),
  ('Nc1ncnc2[nH]ncc12', '18% (inactive)'),
  ('CC(C)(O)C#CC#CC(C)(C)O', '108% (inactive)'),
  ('O=[N+]([O-])c1ccccc1S(=O)c1ccccc1[N+](=O)[O-]', '88.1% (inactive)'),
  ('CC(=O)OCCC(C)CCC=C(C)C (stereo not given)', '102% (inactive)'),
  ('O=C(O)c1ccccc1NCc1ccco1', '117% (inactive)'),
  ('CCOC(=O)/C(=C/c1ccc(OC)cc1)N(CC)CC', '104% (inactive)'),
  ('N#Cc1c(N)sc(=S)c2c1CCCC2', '110% (inactive)'),
  ('COc1cc(CN)ccc1O', '104% (inactive)'),
  ('COC(=O)c1ccc(C(C)C)cc1', '103% (inactive)'),
  ('Cc1ccc(N)cc1[N+](=O)[O-]', '105% (inactive)'),
  ('Cc1cc2ccccc2c(O)c1C#N', '105% (inactive)'),
  ('OC1CCCc2ccccc21 (stereo not given)', '109% (inactive)'),
  ('c1cc2cccc3c4cccc5cccc(c(c1)c23)c54', '104% (inactive)'),
  ('C=CCc1cc(C(C)=O)cc(OC)c1O', '96.6% (inactive)'),
  ('CC12CC3CC1C(C(=O)O2)C3C(=O)O (stereo not given)', '101% (inactive)'),
  ('Cc1ccc(C(=O)N/N=C/c2ccc3c(c2)OCO3)cc1', '82.1% (inactive)'),
  ('O=c1cc(-c2ccccc2)oc2c1ccc1ccccc12', '98.8% (inactive)'),
  ('O=C1OC[C@H]2[C@H](c3ccc(O)c(O)c3)c3cc(O)c(O)cc3C[C@H]12', '112% (inactive)'),
  ('Cc1cc(O)ccc1O', '105% (inactive)'),
  ('O=P(O)(O)OCC(O)CO (stereo not given)', '105% (inactive)');

###

test system: HT29 colon; assay: NCI-60 one-dose screen, 48 h (100 = growth as untreated, 0 = no growth, -100 = all killed); settings: 10 µM
This is part of a sample that, as a whole, favours compounds with a hit. Of some 83,000 tested, about 20% had one in any assay.
Below, each of the molecules is paired with its reported growth value.
PARAMETER: growth (%)

INSERT INTO assay_data (smiles_text, parameter, quantitative_result) VALUES
  ('O=C1C[C@H](c2ccccc2)[C@H](c2ccccc2)C1', 'growth', 105),
  ('CCOC(=O)c1[nH]c(C)c(C(=O)O)c1C', 'growth', 105),
  ('c1c(-c2cc(C3CC3)[nH]n2)n[nH]c1C1CC1', 'growth', 98.7),
  ('CC(C)C(C#N)(C(C)C)C(C)C', 'growth', 105),
  ('Cc1ccc(C)n1-c1ccsc1C(=O)NNC(=O)C(Cl)Cl', 'growth', 106),
  ('COc1ccc(/C=C/c2cccc[n+]2C)cc1', 'growth', 88),
  ('CC(=O)c1ccc(N=C(C#N)C2=C(O)c3ccccc3C2=O)cc1', 'growth', 98.7),
  ('COc1cc(C(N)=O)cc(OC)c1OC', 'growth', 102),
  ('CN(C)c1ccc2oc(=O)c3ccccc3c2c1', 'growth', 86.7),
  ('CCn1c(=O)n(C)c2c(=O)n(C)c(=O)n(C)c21', 'growth', 101),
  ('CN(C)CCN(C)CC(C)(C)C(=O)/C=C/c1ccc(Cl)cc1', 'growth', -16.7),
  ('Cc1ncc(C#N)c(N)n1', 'growth', 112),
  ('CC(=O)Nc1c(C)cc(C)cc1C', 'growth', 119);

###

test system: TK-10 renal; experiment: NCI-60 one-dose screen, 48 h (100 = growth as untreated, 0 = no growth, -100 = all killed); details: 10 µM unless noted
The panel holds about 83,000 compounds, 20% with a hit somewhere; the sample as a whole holds those more often.
PARAMETER: growth (%)

INSERT INTO results (molecule, quantitative_result) VALUES
  ('O=[N+]([O-])c1ccc(CO)cc1', 99.8),
  ('CC(=O)NCc1cc(C)c(C)cc1C', 92.6),
  ('COc1cccc(O)c1O', 91.2),
  ('CC(C)(N)COS(=O)(=O)O', 115),
  ('C[N+](C)=c1ccc2nc3c(cc(Nc4ccccc4)c4ccccc43)oc-2c1', 106),
  ('c1ccc(Cc2ccccc2)cc1', 99),
  ('Cc1ccc(Cl)cc1N1C(=O)CC(Sc2ccccc2N)C1=O (configuration not stated)', 114);

###

test system: NCI-H522 lung; assay: NCI-60 one-dose screen, 48 h (100 = growth as untreated, 0 = no growth, -100 = all killed); conditions: 10 µM
This is part of a sample that, as a whole, favours compounds with a hit. Of some 83,000 tested, about 20% had one in any assay.
Note to self: use yes only for growth readings below 90%; a reading exactly at 90% still gets no.

INSERT INTO results (compound, test_target, assigned_class) VALUES
  ('O=C(NC1CCCCC1)OCc1c(COC(=O)NC2CCCCC2)c(-c2ccc(Cl)c(Cl)c2)n2c1CCC2', 'NCI-H522 lung', 'yes'),
  ('CC1=CC(=O)c2ccccc2C1=O', 'NCI-H522 lung', 'no'),
  ('Cc1c(O)cccc1O', 'NCI-H522 lung', 'yes'),
  ('COC(=O)Nc1cccc(Cl)c1OC', 'NCI-H522 lung', 'no'),
  ('O=c1cc(-c2ccccc2)nc2cc(-c3ccco3)[nH]n12', 'NCI-H522 lung', 'yes'),
  ('Cc1ccc(C(=O)N/N=C/c2ccc3c(c2)OCO3)cc1', 'NCI-H522 lung', 'yes'),
  ('O=C(/C=C/C(=O)c1ccccc1)c1ccccc1', 'NCI-H522 lung', 'yes'),
  ('CC(=O)Cc1ccc(-c2ccccc2)cc1', 'NCI-H522 lung', 'no'),
  ('Cc1ccc(N)cc1[N+](=O)[O-]', 'NCI-H522 lung', 'no'),
  ('O=C(O)c1cccc([N+](=O)[O-])c1O', 'NCI-H522 lung', 'no'),
  ('O=c1cc(-c2ccccc2)[nH]c2c1CCCC2', 'NCI-H522 lung', 'yes'),
  ('CC(=O)c1sc2c(c1OC(=O)c1ccc(Cl)cc1Cl)c(=O)n(-c1ccccc1)c(=S)n2-c1ccccc1', 'NCI-H522 lung', 'yes'),
  ('CCN(CC)C(=O)/C=C(/C)c1ccccc1', 'NCI-H522 lung', 'no'),
  ('O=C1OC[C@H]2[C@H](c3ccc(O)c(O)c3)c3cc(O)c(O)cc3C[C@H]12', 'NCI-H522 lung', 'yes'),
  ('Cc1cc(/C=C/c2ccc3cc(N(C)C)ccc3[n+]2C)c(C)n1-c1ccccc1', 'NCI-H522 lung', 'yes'),
  ('NC(=O)c1ccc(N=C(N)N=C(N)N)cc1', 'NCI-H522 lung', 'no'),
  ('COc1ccc(OC)c(/C=C2\CCc3ccccc3C2=O)c1', 'NCI-H522 lung', 'yes'),
  ('CC1(C)N=C(N)N=C(N)N1c1ccc(Cl)cc1', 'NCI-H522 lung', 'yes'),
  ('O=C1C=CC2=C3c4cc(O)c(O)cc4CC3(O)COC2=C1O (stereo not given)', 'NCI-H522 lung', 'yes'),
  ('O=C(O)c1cccc([N+](=O)[O-])c1', 'NCI-H522 lung', 'no'),
  ('N#C/C(=C\c1cc(O)c(O)c(O)c1)C(N)=O', 'NCI-H522 lung', 'yes'),
  ('Clc1ccc(-c2n[nH]c3c2Cc2ccccc2-3)cc1Cl', 'NCI-H522 lung', 'yes'),
  ('CC(=O)c1ccc2c(ccc3ccccc32)c1', 'NCI-H522 lung', 'no'),
  ('CCOC(=O)CCCC(=O)OCC', 'NCI-H522 lung', 'no'),
  ('CCOc1ccc(Br)cc1/C=N\N=C\c1cc(Br)ccc1OCC', 'NCI-H522 lung', 'no'),
  ('COc1cc2c(cc1O)CC[C@@H]1C2CC[C@@]2(C)C1CC[C@@H]2O (stereo not given in full)', 'NCI-H522 lung', 'yes'),
  ('CC(=Nc1ccccc1)C1=C(O)C(Cc2cccc(F)c2)NC1=O (stereo not given)', 'NCI-H522 lung', 'yes'),
  ('Oc1ccc(N=Nc2ccc(Br)cc2)c(O)c1', 'NCI-H522 lung', 'yes');
